Molecular target: C5a Receptor (Homo sapiens)
Construct: 2.5-25 ug/mL of purified PMNL membrane fragments; endogenous in cells
Test: Anaphylatoxin receptor binding Ki determination: inhibition of 125I-C5a binding to purified PMNL membrane fragments
Conditions: 0.03-1 nM 125I-C5a, 2.5-25 ug/mL purified PMNL membrane fragments, filtration; read-out: Ki (In vitro C5a Receptor Binding Potency)
Where a SMILES comes first, the peptide text is derived from it. [ ]: non-standard residue; d: D form. Phe(4-I) = N[C@@H](Cc1ccc(I)cc1)C(=O)O; d1Nal = N[C@H](Cc1cccc2ccccc12)C(=O)O; NMeF = CN[C@@H](Cc1ccccc1)C(=O)O; Cha = N[C@@H](CC1CCCCC1)C(=O)O; dCha = N[C@H](CC1CCCCC1)C(=O)O; dNle = CCCC[C@@H](N)C(=O)O
reported endpoint: pKi
Answers are plain numbers, as −log10 of the molar value.

>>> numeric_value("CCCC[C@@H](NC(=O)[C@H](CC(C)C)NC(=O)[C@H](CC1CCCCC1)NC(=O)[C@H](CC1CCCCC1)NC(=O)[C@H](C)NC(=O)[C@H](CCCCN)NC(=O)[C@@H](N)Cc1ccccc1)C(=O)O [Example 390] (H-FKA[Cha][Cha]L[dNle]-OH)")
5.40
>>> numeric_value("CC(C)C[C@H](NC(=O)[C@H](CC1CCCCC1)NC(=O)[C@H](CC1CCCCC1)NC(=O)[C@H](CCCCN)NC(=O)[C@@H](N)Cc1ccc(I)cc1)C(=O)N[C@H](C)C(=O)N[C@@H](CCCNC(=N)N)C(=O)O [Example 107] (H-[Phe(4-I)]K[Cha][Cha]L[dA]R-OH)")
5.44
>>> numeric_value("CN[C@@H](Cc1ccccc1)C(=O)N[C@@H](CCCCN)C(=O)N1CCC[C@H]1C(=O)N[C@H](Cc1cccc2ccccc12)C(=O)N[C@@H](Cc1ccccc1)C(=O)N[C@H](CCCNC(=N)N)C(=O)O [Example 224] (H-[NMeF]KP[d1Nal]F[dR]-OH)")
7.92
>>> numeric_value("C[C@H](NC(=O)[C@H](CCCCN)NC(=O)[C@@H](N)Cc1ccccc1)C(=O)N[C@H](CC1CCCCC1)C(=O)N[C@@H](CC1CCCCC1)C(=O)N[C@H](CCCNC(=N)N)C(=O)O [Example 370] (H-FKA[dCha][Cha][dR]-OH)")
7.07
>>> numeric_value("CC(C)(C)CC(N)C(=O)N[C@@H](CCCCN)C(=O)N1CCC[C@H]1C(=O)N[C@H](CC1CCCCC1)C(=O)N[C@@H](CC1CCCCC1)C(=O)N[C@H](CCCNC(=N)N)C(=O)O (mixture of isomers)")
7.10
>>> numeric_value("CN[C@@H](Cc1ccccc1)C(=O)N[C@@H](CCCCN)C(=O)N[C@@H](CCC(=O)O)C(=O)N[C@H](CC1CCCCC1)C(=O)N[C@@H](Cc1ccccc1)C(=O)N[C@H](CCCNC(=N)N)C(=O)O [Example 40] (H-[NMeF]KE[dCha]F[dR]-OH)")
7.00
>>> numeric_value("N=C(N)NCCC[C@@H](NC(=O)[C@H](CC1CCCCC1)NC(=O)[C@@H](CC1CCCCC1)NC(=O)[C@H](CCCCN)NC(=O)[C@H](CCCCN)NC(=O)[C@@H](N)Cc1ccccc1)C(=O)O [Example 58] (H-FKK[dCha][Cha][dR]-OH)")
7.96

Summary for this compound, CC(C)[C@H](NC(=O)[C@H](CCCCN)NC(=O)[C@@H](N)Cc1ccccc1)C(=O)N[C@H](CC1CCCCC1)C(=O)N[C@@H](CC1CCCCC1)C(=O)N[C@H](CCCNC(=N)N)C(=O)O [Example 360] (H-FKV[dCha][Cha][dR]-OH) : pKi is 7.28

---

Target: C5a Receptor (Homo sapiens, UniProt P21730)
Construct: 2.5-25 ug/mL of purified PMNL membrane fragments; endogenous in cells
Assay: Anaphylatoxin receptor binding Ki determination: inhibition of 125I-C5a binding to purified PMNL membrane fragments
Conditions: 0.03-1 nM 125I-C5a, 2.5-25 ug/mL purified PMNL membrane fragments, filtration; read-out: Ki (In vitro C5a Receptor Binding Potency)
Where a SMILES comes first, the peptide text is derived from it. [ ]: non-standard residue; d: D form. The star is where a group is joined. NMeF = CN[C@@H](Cc1ccccc1)C(=O)O; Cha = N[C@@H](CC1CCCCC1)C(=O)O; dCha = N[C@H](CC1CCCCC1)C(=O)O; NMe(benzyl) = CN(Cc1ccccc1)*
What pKi was measured for each of the following?
Answers are plain numbers, as −log10 of the molar value.

>>> numeric_value("CN[C@@H](Cc1ccccc1)C(=O)N[C@@H](CCCCN)C(=O)N1CCC[C@H]1C(=O)N[C@H](CC1CCCCC1)C(=O)N[C@@H](CC1CCCCC1)C(=O)N[C@H](CCCNC(=N)N)C(=O)O [Example 166] (H-[NMeF]KP[dCha][Cha][dR]-OH)")
7.46
>>> numeric_value("CC(C)C[C@@H](NC(=O)[C@H](CC1CCCCC1)NC(=O)[C@H](CC1CCCCC1)NC(=O)[C@H](C)NC(=O)[C@H](CCCCN)NC(=O)[C@@H](N)Cc1ccccc1)C(=O)N[C@@H](CCCNC(=N)N)C(=O)O [Example 195] (H-FKA[Cha][Cha][dL]R-OH)")
5.82
>>> numeric_value("CN[C@@H](Cc1ccccc1)C(=O)N[C@@H](CCCCN)C(=O)N[C@@H](C)C(=O)N[C@H](CC1CCCCC1)C(=O)N[C@@H](CC1CCCCC1)C(=O)N[C@H](CCCNC(=N)N)C(=O)O [Example 152] (H-[NMeF]KA[dCha][Cha][dR]-OH)")
7.08

From here, focus on the item given below.
pKi measured on CN[C@@H](Cc1ccccc1)C(=O)N[C@@H](CCCCN)C(=O)N1CCC[C@H]1C(=O)N[C@H](CC1CCCCC1)C(=O)N[C@@H](CC1CCCCC1)C(=O)N[C@H](CCCNC(=N)N)C(=O)N(C)Cc1ccccc1 [Example 97] (H-[NMeF]KP[dCha][Cha][dR]-{NMe(benzyl)}) = 6.28

---

Target: C5a Receptor (Homo sapiens)
Construct: 2.5-25 ug/mL of purified PMNL membrane fragments; endogenous in cells
Sequence (P21730 1-350): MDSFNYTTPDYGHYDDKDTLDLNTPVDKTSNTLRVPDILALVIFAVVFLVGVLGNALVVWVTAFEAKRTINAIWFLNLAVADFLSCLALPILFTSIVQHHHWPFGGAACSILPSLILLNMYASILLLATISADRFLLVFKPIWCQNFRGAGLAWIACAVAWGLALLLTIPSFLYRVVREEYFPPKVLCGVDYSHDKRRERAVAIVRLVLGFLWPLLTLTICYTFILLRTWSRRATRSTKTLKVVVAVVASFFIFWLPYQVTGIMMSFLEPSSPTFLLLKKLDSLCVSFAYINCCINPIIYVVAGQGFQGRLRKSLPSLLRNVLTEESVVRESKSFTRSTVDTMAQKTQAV
Assay: Anaphylatoxin receptor binding Ki determination: inhibition of 125I-C5a binding to purified PMNL membrane fragments
Conditions: 0.03-1 nM 125I-C5a, 2.5-25 ug/mL purified PMNL membrane fragments, filtration; read-out: Ki (In vitro C5a Receptor Binding Potency)
pKi: −log10 of the molar value. Where a name gives a salt, the structure may show the parent alone. Where a SMILES comes first, the peptide text is derived from it. [ ]: non-standard residue; d: D form. The star is where a group is joined. NMeF = CN[C@@H](Cc1ccccc1)C(=O)O; Cha = N[C@@H](CC1CCCCC1)C(=O)O; dCha = N[C@H](CC1CCCCC1)C(=O)O; dPhg = N[C@@H](C(=O)O)c1ccccc1; Nle = CCCC[C@H](N)C(=O)O; Tfa = O=C(C(F)(F)F)*
Class Satisfied: pKi at least 7. Class Not satisfied: pKi below 7.

>>> class_name("CCCC[C@H](NC(=O)[C@H](Cc1ccccc1)NC)C(=O)N1CCC[C@H]1C(=O)N[C@H](CC1CCCCC1)C(=O)N[C@@H](CC1CCCCC1)C(=O)N[C@H](CCCNC(=N)N)C(=O)O [Example 187] (H-[NMeF][Nle]P[dCha][Cha][dR]-OH)")
"Not satisfied"
>>> class_name("CN[C@@H](Cc1ccccc1)C(=O)N[C@@H](CCCCN)C(=O)N1CCC[C@H]1C(=O)N[C@H](CC1CCCCC1)C(=O)N[C@@H](Cc1ccccc1)C(=O)N[C@H](CCCNC(=N)N)C(=O)O [Example 128] (H-[NMeF]KP[dCha]F[dR]-OH)")
"Satisfied"
>>> class_name("CN[C@@H](Cc1ccccc1)C(=O)N[C@@H](CCCCN)C(=O)N1CCC[C@H]1C(=O)N[C@H](CC1CCCCC1)C(=O)N[C@@H](Cc1ccccc1)C(=O)N[C@@H](C(=O)O)c1ccccc1 [Example 367] (H-[NMeF]KP[dCha]F[dPhg]-OH)")
"Not satisfied"

Kindly consider the entry below.
# input Hi, just wondering whether CN[C@@H](Cc1ccccc1)C(=O)N[C@@H](CCCCNC(=O)C(F)(F)F)C(=O)N1CCC[C@H]1C(=O)N[C@H](CC1CCCCC1)C(=O)N[C@@H](CC1CCCCC1)C(=O)N[C@H](CCCNC(=N)N)C(=O)O [Example 305] (H-[NMeF]K(Tfa)P[dCha][Cha][dR]-OH) shows pKi of 7 or higher.
# output Not satisfied
